# experimental.target: Voltage-gated N-type calcium channel alpha-1B subunit/Amyloid beta A4 precursor protein-binding family A member 1 (Homo sapiens, UniProt Q00975+Q02410)
# Sequence (Q00975 whole entry): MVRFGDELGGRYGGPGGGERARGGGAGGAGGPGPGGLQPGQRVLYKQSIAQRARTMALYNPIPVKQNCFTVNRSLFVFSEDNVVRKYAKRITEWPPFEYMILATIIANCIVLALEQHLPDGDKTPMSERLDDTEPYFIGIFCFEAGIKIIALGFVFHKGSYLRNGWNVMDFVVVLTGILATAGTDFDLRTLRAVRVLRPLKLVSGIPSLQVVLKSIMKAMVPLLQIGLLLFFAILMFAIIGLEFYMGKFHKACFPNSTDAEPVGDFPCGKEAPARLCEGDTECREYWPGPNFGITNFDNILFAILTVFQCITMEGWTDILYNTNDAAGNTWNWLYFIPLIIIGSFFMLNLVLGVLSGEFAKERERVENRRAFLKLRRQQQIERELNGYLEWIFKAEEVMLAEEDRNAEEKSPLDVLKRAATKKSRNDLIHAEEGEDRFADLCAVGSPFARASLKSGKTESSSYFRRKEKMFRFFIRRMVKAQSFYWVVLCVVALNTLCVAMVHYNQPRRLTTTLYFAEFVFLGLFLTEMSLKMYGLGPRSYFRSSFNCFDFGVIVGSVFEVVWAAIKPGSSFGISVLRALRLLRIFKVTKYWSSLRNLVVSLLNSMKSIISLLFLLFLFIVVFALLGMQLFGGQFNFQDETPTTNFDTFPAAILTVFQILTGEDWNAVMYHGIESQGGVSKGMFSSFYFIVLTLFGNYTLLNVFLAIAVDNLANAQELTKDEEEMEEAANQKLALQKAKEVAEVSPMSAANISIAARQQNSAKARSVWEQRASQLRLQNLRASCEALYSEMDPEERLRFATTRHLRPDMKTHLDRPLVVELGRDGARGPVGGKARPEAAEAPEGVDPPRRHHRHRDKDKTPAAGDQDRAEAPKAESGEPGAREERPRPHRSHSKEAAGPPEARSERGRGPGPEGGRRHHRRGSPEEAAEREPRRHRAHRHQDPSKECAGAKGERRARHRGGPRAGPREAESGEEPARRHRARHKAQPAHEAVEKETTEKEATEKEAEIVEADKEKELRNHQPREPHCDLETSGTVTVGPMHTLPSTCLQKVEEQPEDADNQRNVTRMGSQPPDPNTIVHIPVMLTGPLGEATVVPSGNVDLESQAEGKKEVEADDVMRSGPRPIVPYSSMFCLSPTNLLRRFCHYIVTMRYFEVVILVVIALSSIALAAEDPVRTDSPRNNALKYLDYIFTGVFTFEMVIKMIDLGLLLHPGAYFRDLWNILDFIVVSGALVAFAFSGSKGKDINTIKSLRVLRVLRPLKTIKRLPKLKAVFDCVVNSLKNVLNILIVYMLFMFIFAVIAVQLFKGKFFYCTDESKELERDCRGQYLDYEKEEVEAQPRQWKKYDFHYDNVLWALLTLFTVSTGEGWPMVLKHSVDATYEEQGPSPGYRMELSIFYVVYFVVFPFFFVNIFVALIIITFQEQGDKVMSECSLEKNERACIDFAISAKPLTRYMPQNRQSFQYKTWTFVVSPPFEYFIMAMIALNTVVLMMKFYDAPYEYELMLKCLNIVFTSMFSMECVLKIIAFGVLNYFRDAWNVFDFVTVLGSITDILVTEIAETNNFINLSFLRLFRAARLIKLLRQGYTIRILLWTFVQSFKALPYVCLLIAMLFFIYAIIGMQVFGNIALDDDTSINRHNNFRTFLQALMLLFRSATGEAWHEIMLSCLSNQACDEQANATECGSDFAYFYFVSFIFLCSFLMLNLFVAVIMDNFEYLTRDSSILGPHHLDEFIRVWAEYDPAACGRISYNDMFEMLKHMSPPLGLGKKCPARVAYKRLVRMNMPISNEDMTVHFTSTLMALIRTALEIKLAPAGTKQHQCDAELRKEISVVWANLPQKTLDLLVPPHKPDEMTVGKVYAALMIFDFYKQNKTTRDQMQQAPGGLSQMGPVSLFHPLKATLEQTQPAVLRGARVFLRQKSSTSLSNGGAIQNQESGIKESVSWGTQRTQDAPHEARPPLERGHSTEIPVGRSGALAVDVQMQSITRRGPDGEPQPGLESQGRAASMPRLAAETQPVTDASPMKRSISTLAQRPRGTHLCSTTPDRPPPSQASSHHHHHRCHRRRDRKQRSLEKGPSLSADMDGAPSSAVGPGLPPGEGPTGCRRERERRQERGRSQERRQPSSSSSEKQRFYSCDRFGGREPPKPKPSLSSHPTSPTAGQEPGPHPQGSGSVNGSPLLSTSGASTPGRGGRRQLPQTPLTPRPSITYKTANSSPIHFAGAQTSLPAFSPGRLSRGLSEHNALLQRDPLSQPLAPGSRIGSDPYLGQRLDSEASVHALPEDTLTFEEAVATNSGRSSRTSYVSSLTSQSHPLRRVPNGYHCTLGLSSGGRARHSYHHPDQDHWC
# Sequence (Q02410 whole entry): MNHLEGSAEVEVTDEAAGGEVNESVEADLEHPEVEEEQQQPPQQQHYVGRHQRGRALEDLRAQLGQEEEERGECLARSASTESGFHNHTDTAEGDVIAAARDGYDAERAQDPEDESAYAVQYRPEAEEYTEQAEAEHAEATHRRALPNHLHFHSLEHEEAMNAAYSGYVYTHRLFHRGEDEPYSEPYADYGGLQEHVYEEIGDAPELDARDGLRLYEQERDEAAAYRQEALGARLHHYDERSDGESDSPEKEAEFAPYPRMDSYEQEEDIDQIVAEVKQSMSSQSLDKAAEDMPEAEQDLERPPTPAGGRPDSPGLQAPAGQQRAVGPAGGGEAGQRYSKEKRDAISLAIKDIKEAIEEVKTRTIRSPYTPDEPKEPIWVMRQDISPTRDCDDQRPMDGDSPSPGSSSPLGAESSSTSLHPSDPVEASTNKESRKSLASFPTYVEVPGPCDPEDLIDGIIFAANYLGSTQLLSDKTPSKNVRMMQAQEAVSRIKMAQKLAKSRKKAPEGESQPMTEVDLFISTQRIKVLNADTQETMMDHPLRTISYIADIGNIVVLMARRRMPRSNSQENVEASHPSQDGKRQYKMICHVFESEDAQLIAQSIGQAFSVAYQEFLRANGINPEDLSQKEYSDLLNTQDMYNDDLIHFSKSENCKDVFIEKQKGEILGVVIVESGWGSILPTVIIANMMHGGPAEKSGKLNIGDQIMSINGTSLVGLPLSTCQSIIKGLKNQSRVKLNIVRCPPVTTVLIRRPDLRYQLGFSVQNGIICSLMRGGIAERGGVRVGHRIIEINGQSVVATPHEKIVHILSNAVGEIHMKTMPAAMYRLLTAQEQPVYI
# Format: protein assay
Active and inactive are the calls of the source.
property.measured: IC50

>>> df
                            smiles_notation              data_value
0  CCOC(=O)c1cc(-c2ccc(F)cc2)nc2c1c(=O)[nH]c(=O)n2Cc1ccccc1  > 56.8 µM (not active)
1              Cc1cccnc1NC(=S)Nc1ccc(F)cc1F        11.5 µM (active)
2  NS(=O)(=O)c1ccc(N/N=C/c2ccc3c(c2)OCO3)c([N+](=O)[O-])c1        3.59 µM (active)

Moving on to the next compound.
// query Quick one: IC50 of COc1cc(/C=C2\SC(=O)N(c3cccc(Cl)c3)C2=O)cc([N+](=O)[O-])c1O ?
// result 3.5 µM (active)

----------
# experimental.target: Zinc finger protein mex-5 (Caenorhabditis elegans, UniProt Q9XUB2)
# Sequence (Q9XUB2 whole entry): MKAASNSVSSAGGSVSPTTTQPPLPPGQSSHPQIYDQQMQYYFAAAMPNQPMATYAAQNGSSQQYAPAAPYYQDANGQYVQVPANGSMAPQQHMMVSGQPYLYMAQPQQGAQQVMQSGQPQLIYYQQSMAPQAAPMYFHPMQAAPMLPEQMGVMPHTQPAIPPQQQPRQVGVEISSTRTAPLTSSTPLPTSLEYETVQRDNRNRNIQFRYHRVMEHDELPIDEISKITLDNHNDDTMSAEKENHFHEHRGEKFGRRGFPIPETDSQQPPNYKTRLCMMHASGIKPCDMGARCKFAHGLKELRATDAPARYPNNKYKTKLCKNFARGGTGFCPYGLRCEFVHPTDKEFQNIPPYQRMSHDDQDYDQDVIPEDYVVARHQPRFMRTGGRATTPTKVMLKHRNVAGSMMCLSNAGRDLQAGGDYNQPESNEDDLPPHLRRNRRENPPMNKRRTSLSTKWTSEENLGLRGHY
# experimental.protocol: MEX-5/TCR-2 RNA interaction inhibitors, dose response, biochemical, C. elegans, fluorescence polarization (AID 1960)
Active and inactive are the calls of the source.
Recorded EC50 for the following compounds

// query Look up EC50: Oc1[nH]c2ccc(Br)cc2c1N=Nc1nn[nH]n1
// result 5.18 µM (active)

// query Query (compound): CCN(CC)CCN/C=C1/C(=O)NC(=O)N(Cc2ccccc2)C1=O ; field requested: EC50
// result > 300 µM (not active)

----------
# experimental.target: Metabotropic glutamate receptor 5 (Rattus norvegicus)
# Sequence (P31424 whole entry): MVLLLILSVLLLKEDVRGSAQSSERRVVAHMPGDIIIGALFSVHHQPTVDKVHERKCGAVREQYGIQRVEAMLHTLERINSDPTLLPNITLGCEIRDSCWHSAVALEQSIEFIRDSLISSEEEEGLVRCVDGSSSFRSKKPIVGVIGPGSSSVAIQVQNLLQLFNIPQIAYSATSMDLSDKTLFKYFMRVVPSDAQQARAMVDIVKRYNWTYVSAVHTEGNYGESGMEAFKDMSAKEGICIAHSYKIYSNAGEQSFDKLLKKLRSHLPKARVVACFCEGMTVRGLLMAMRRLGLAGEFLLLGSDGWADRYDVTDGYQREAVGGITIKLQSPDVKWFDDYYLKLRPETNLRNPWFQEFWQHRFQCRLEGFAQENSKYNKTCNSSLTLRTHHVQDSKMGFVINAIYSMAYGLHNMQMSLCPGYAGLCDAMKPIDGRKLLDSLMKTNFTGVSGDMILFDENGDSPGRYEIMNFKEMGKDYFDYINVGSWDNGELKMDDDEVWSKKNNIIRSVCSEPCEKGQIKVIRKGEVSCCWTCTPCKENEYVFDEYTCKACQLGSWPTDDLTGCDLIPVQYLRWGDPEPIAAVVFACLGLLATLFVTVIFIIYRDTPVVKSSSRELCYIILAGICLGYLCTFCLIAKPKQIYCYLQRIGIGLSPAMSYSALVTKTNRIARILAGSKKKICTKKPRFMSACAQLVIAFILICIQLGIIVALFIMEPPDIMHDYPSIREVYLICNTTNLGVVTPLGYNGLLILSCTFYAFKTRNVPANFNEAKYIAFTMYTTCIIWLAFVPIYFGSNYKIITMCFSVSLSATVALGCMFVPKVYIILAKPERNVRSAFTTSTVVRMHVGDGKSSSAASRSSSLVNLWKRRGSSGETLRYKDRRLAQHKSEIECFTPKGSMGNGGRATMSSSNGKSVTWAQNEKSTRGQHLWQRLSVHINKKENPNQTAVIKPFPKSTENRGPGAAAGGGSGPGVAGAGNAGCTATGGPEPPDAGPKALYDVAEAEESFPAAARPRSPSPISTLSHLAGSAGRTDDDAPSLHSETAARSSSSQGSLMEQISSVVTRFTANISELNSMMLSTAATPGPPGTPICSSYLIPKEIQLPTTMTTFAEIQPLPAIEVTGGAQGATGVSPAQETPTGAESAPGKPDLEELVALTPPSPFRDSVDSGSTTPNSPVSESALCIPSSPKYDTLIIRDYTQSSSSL
# experimental.protocol: Identification of a glycine sulfonamide based non-MPEP site positive allosteric potentiator (PAM) of mGlu5 (calcium_assay).
property.measured: EC50 (nM)
# number only, unit nM dropped from output

// query Record CS(=O)(=O)N(CC(=O)NCC1CC1)c1cc(C(F)(F)F)ccc1Cl : what is its EC50 with Metabotropic glutamate receptor 5 (Rattus norvegicus)?
// result 298

----------
# experimental.target: Protein RecA (Mycobacterium tuberculosis)
# experimental.protocol: Fluorescence Cell-Free Homogeneous Dose Retest to Identify Inhibitors of RecA-Intein Splicing Activity. [Related pubchem assays (depositor defined):AID2097, AID2223, AID489010, AID492950]
# Type: functional
The source made the active and inactive calls.
The reply should be one of these categories: active, inactive

                                   molecule  label_value
0  CNc1ccc2nc3ccccc3[n+](C)c2c1.[O-][Cl+3]([O-])([O-])[O-]       active
1                 CN(Cc1ccc(Cl)cc1)C(=O)CCl       active
2   CC(C)=CCC1=C(OCC(=O)O)C(=O)c2ccccc2C1=O       active
3      Oc1ccc(Nc2nc(-c3ccc4ccccc4c3)cs2)cc1       active
4  CSC(=N/c1cc(Cl)ccc1Cl)/C(C#N)=C(/O)c1ccco1       active

// query Please share the test call associated with COC(=O)c1c(C)oc2ccc(N(C(=O)c3ccncc3)S(=O)(=O)c3ccc(C)cc3C)cc12 .
// result active

// query Which result was noted for this molecule in the test: C/C(CC(=O)Nc1cc(C)ccn1)=N\NC(=O)c1cccc(F)c1
// result active

// query Record request — test call for CC(=O)Oc1cc2c(cc1Cl)C1(CC(c3ccccc3Cl)O2)CC(C)(C)N=C(S)N1 (centres undefined)
// result active

// query Answer briefly: the call reported for COc1ccc(N/N=C(\C#N)C(=N)SCc2ccccc2)cc1 in this assay.
// result active
